These entries and their values trace back to patent US6551774B1.

- systemTested: Tetrahymena thermophila telomerase (Tetrahymena thermophila, UniProt O77448)
- Construct: A standard assay contained 50% by volume of heparin-agarose purified telomerase; endogenous in cells; host or cells: Tetrahymena thermophila cell extracts, heparin-agarose purified
- Sequence (O77448 1-1117): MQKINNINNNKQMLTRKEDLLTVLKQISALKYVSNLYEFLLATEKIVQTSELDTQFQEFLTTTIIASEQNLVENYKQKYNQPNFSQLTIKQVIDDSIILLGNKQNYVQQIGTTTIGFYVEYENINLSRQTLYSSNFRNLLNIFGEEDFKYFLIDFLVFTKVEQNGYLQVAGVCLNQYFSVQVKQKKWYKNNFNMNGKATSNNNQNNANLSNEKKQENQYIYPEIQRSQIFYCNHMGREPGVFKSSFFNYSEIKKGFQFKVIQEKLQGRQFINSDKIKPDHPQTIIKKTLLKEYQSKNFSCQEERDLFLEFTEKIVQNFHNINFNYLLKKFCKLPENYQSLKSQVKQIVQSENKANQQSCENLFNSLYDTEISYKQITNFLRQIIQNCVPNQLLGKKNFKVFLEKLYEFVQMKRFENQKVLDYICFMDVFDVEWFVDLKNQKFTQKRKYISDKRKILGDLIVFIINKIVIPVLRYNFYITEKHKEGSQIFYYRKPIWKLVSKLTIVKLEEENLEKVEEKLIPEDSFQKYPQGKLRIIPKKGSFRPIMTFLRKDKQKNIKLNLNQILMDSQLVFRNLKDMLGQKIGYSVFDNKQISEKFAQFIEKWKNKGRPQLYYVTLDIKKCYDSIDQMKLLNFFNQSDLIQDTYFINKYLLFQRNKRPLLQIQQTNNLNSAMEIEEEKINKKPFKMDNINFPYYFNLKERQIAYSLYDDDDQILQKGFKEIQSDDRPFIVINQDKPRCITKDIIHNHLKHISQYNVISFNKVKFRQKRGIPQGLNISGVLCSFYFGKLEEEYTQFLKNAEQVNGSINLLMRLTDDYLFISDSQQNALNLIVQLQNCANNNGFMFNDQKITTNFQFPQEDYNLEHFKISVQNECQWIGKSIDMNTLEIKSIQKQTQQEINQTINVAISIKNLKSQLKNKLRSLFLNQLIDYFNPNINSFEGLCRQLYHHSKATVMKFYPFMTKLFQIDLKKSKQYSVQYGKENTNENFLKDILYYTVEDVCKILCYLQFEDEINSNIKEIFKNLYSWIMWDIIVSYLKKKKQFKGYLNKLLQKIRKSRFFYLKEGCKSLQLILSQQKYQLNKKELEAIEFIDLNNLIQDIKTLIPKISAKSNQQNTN
- Sequence (W7X6T2 1-542 partner): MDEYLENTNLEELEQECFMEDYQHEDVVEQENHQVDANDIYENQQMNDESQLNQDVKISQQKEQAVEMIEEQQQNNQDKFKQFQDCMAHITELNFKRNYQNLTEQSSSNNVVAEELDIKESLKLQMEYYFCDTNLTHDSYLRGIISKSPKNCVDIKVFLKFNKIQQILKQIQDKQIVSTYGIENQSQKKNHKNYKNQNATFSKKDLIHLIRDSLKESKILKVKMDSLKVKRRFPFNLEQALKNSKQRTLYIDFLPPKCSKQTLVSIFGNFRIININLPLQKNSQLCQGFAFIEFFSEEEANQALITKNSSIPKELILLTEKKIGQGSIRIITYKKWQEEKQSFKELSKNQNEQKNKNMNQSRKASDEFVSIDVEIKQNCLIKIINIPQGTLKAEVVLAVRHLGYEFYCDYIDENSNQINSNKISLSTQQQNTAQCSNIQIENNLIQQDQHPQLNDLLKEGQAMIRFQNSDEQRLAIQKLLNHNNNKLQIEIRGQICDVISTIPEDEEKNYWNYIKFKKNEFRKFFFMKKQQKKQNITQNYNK
- experiment: Tetrahymena telomerase in vitro assay (incorporation of 32P label, gel of products)
- Type: biochemical
Listing of recorded IC50 by entry.
Respond numerically; units are µM and should not be typed.

Cc1cn([C@H]2CC[C@@H](COP(=O)(O)OP(=O)(O)OP(=O)(O)O)O2)c(=O)[nH]c1=O [ddTTP] = 5

Next, consider the following compound.
Note to self: IC50 recorded for O=c1[nH]cnc2c1ncn2[C@H]1CC[C@@H](COP(=O)(O)OP(=O)(O)OP(=O)(O)O)O1 [ddITP, dideoxyinosine triphosphate] was 3
